target: T1, PSMA Fab; assay: clonal phage ELISA; biotinylated PSMA Fab on neutravidin plate, wells first incubated with PSMA antigen as competitor; anti-M13 HRP detection
T1 construct: also called Anti-PSMA Fab; 006 PSMA Fab
Where no end group is shown, it is not given here.
Endpoint: phage binding ELISA signal, Anti-PSMA Fab in the presence of PSMA
Number, no unit, nothing else.

Exercise: Param item = QEVWCRPIWMCEGF [Phage-3472] ; retrieve measured phage binding ELISA signal, Anti-PSMA Fab in the presence of PSMA.
Solution: 0.109

Exercise: And the next one, EIVKCVPPWMCSGI [Phage-3469] ?
Solution: 0.0727

Exercise: And the next one, ETHFCKPKWMCVGF (cysteine pairing not given here; also: fused to pIII of bacteriophage) [Phage-3465] ?
Solution: 0.0927

Exercise: And the next one, EDRICEPDWMCAGF [Phage-3475] ?
Solution: 0.105
